Below, each entry is listed alongside its reported Dmax.
# Tested target: B-RAF V600E (Homo sapiens, UniProt P15056, V600E)
# Construct: expressed in transfected cells; host or cells: T-Rex 293 cells (Invitrogen #R71007)
# Sequence (P15056 whole entry V600E): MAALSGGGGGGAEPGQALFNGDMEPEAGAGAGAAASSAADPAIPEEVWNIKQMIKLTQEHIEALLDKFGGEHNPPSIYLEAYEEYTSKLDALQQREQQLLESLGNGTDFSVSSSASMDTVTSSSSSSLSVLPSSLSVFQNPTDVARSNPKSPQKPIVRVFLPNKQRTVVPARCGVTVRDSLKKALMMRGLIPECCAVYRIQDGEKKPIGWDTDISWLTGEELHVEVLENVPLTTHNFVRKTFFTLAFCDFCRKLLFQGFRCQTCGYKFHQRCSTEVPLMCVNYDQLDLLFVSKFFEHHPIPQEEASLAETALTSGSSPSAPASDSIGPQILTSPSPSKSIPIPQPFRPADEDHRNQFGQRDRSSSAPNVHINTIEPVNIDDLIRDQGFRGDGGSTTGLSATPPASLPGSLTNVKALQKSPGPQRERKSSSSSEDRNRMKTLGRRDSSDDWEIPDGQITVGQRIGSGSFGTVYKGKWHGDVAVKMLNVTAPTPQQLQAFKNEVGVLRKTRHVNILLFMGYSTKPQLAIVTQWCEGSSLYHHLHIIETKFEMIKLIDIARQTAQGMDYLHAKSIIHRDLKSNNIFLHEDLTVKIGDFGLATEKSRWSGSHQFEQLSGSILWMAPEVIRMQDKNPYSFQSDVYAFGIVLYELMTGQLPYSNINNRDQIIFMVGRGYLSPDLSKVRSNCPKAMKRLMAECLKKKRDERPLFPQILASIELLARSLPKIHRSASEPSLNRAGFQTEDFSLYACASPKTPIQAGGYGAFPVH
# Assay overview: Target protein degradation, assay C: T-Rex 293 cells, HA-BRAF_V600E, 384 well format
# Format: cell-based
# Recorded conditions: T-REx-293, Assay C, T-Rex 293 HA-BRAF_V600E cells, 24 hours, Examples 83-269
# Experimental: C. T-Rex 293 Cells (384 Well Format) T-Rex 293 cells were purchased from Invitrogen (#R71007), and stably transfected with a pcDNA4/TO_HA-BRAF_V600E construct, using 400 ug Zeocin for selection. […] BRAF intensity is quantified in HCS Studio software (ThermoFisher), using a custom script, exported, analyzed using KNIME, and curve curation is performed in an ELN (Scilligence). Cell toxicity is measured via comparing number of nuclei in PROTAC treated wells to DMSO controls. […]

Previously resolved entries follow.
# Molecule, Tested target, Dmax
measured = [
    ("N#Cc1c(NS(=O)(=O)N2CC[C@@H](F)C2)ccc(F)c1Oc1ccc2ncn(-c3ccc(N4CC(CN5CCC(c6ccc7c(c6)CN([C@H]6CCC(=O)NC6=O)C7=O)CC5)C4)cc3)c(=O)c2c1 [Example 189]", "B-RAF V600E (Homo sapiens, UniProt P15056, V600E)", "35 to 70%"),
    ("N#Cc1c(NS(=O)(=O)N2CC[C@@H](F)C2)ccc(F)c1Oc1ccc2ncn(-c3cccc(C4CCN(CC5CN(c6ccc7c(c6)CN([C@H]6CCC(=O)NC6=O)C7=O)C5)CC4)c3)c(=O)c2c1 [Example 255]", "B-RAF V600E (Homo sapiens, UniProt P15056, V600E)", "35 to 70%"),
    ("N#Cc1c(NS(=O)(=O)N2CC[C@@H](F)C2)ccc(F)c1Oc1ccc2ncn(-c3ccc(N4CCN(CC5CCN(c6cc7c(c(C(F)(F)F)c6)C(=O)N(C6CCC(=O)NC6=O)C7)CC5)CC4)cc3)c(=O)c2c1 (stereo partly drawn) [Example 266]", "B-RAF V600E (Homo sapiens, UniProt P15056, V600E)", "35 to 70%"),
    ("N#Cc1c(NS(=O)(=O)N2CC[C@@H](F)C2)ccc(F)c1Oc1ccc2ncn(-c3ccc(N4CCN(CC5CCN(c6ccc(C7CCC(=O)NC7=O)cn6)CC5)CC4)cc3)c(=O)c2c1 (stereo partly drawn) [Example 91]", "B-RAF V600E (Homo sapiens, UniProt P15056, V600E)", "35 to 70%"),
    ("N#Cc1c(NS(=O)(=O)N2CC[C@@H](F)C2)ccc(F)c1Oc1ccc2ncn(-c3ccc(NC4CCN(c5ccc6c(c5)C(=O)N(C5CCC(=O)NC5=O)C6=O)CC4)nc3)c(=O)c2c1 (stereo partly drawn) [Example 157]", "B-RAF V600E (Homo sapiens, UniProt P15056, V600E)", "35 to 70%"),
]

Next, consider the following molecule.
Form field Dmax, entry N#Cc1c(NS(=O)(=O)N2CC[C@@H](F)C2)ccc(F)c1Oc1ccc2ncn(-c3ccc(N4CCN(CC5CC6(C5)CN(c5ccc7c(c5)CN([C@H]5CCC(=O)NC5=O)C7=O)C6)CC4)cc3)c(=O)c2c1 [Example 179] : ≥ 70%
